Tested on: viral RNA polymerase
Experiment: Potential inhibitors: Results Hit validation
Assay type: biochemical
Settings: test concentration not given
Method: Compound stocks were prepared at a concentration of 1 mM in 65% DMSO, at a volume of 5 μL each.
# Results Hit validation Median (% inhibition) listing for each entry below
Give the value in % inhibition but do not write % inhibition after it.

These solved cases illustrate the format of a correct answer.
compound	endpoint-value
COc1cc(-c2cc(=O)c3c(O)c(C4OC(CO)C(O)C(OC5OC(CO)C(O)C(O)C5OC5OC(CO)C(O)C(O)C5O)C4OC(=O)/C=C/c4ccc(O)c(O)c4)c(O)cc3o2)ccc1O (centres unmarked)	52.3
CC(=O)OC1CC2C(COC(=O)CC(C)C)=CO[C@H](OC(=O)CC(C)C)C2C12CO2 (some centres unmarked)	55.9
COc1cc(OC)cc([C@@H](C)C(=O)c2ccc(O)cc2O)c1	64.2
O=C(CCc1ccc(O)cc1)CC(CCc1ccc(O)cc1)OC1O[C@@H](COC(=O)/C=C/c2ccc(O)cc2)[C@H](O)[C@@H](O)[C@@H]1O (some centres unmarked)	45.2
CC(O)CC1CCC(C(C)C(=O)OC(C)CC2CCC(C(C)C(=O)O)O2)O1 (centres unmarked)	44.5
O=C(O)/C=C/c1ccccc1O[C@H]1O[C@@H](CO)[C@H](O)[C@@H](O)[C@@H]1O	44

Q) Results Hit validation Median (% inhibition) for CC1=C[C@H](C/C(C)=C/COc2c3occc3cc3ccc(=O)oc23)OC1=O ?
A) 51.1

Q) Now the same for COc1ccc2c(c1)OC1c3ccc(OC)cc3OCC21 (centres unmarked)
A) 77.6

Q) Now the same for COc1cc(-c2oc3cc(O[C@H]4O[C@@H](CO)[C@H](O)[C@@H](O)[C@@H]4O)c(OC)c(O)c3c(=O)c2OC)ccc1O
A) 62.2

Q) Now the same for COC(=O)C1=COC(OC2O[C@@H](CO)[C@H](O)[C@@H](O)[C@@H]2O)[C@H]2C1C=CC21C=C(C(C)CC(=O)/C=C/c2ccc(O)cc2)C(=O)O1 (some centres unmarked)
A) 61.7

Q) Now the same for COC(=O)[C@H](Cc1ccccc1)NC(=O)c1ccccc1
A) 60.6

Q) Now the same for CCCCCCCC/C(=C/CC(=O)O)C(=O)O
A) 40.5

Measured values drawn from patent US20230040081A1 for this set.
